Cited source for all entries: patent US20210032351A1

Item-by-item account of Maximum mean fluorescence intensity
Biological target: human EGFRvIII protein on the cell surface (human) (UniProt P00533)
Assay: FACS on U87MG-EGFRvIII cells
Note: unit MFI is implicit; provide only the numeric part.

Humanized antibody h75G7C6-4 (antibody, human IgG1, V domains shown) VH: EVQLVQSGAEVKKPGASVKVSCKASGYTFTDYNMDWVKQAPGQGLEWIGDINPNNADTIYNQKFKGRVTLTVDKSTSTVYMELSSLRSEDTAVYYCARGDYDGYYPVYYAMDYWGQGTTVTVSS VL: ENVLTQSPATLSLSPGERATLSCRASSSVSSSYLHWYQQKPGQSPRLLIFSTSNLAAGVPARFSGSGSGTDYTLTISSLEPEDFAVYYCQQYSGYPLTFGGGTKVEIK: 18700
Humanized antibody h75G7C6-7 (antibody, human IgG1, V domains shown) VH: QVQLVQSGAEVKKPGASVKVSCKASGYTFTDYNMDWVRQAPGQGLEWMGDINPNNADTIYNQKFKGRVTMTRDTSTSTVYMELSSLRSEDTAVYYCARGDYDGYYPVYYAMDYWGQGTTVTVSS VL: ENVLTQSPATLSLSPGERATLSCRASSSVSSSYLHWYQQKPGQSPRLLIFSTSNLAAGIPARFSGSGSGTDYTLTISSLEPEDFAVYYCQQYSGYPLTFGGGTKVEIK: 17200
Humanized antibody h75G7C6-1 (antibody, human IgG1, V domains shown) VH: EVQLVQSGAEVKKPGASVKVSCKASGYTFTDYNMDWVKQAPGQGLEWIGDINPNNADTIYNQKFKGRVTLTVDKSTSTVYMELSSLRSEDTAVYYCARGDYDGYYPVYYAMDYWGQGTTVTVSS VL: EIVLTQSPATLSLSPGERATLSCRASSSVSSSYLHWYQQKPGQAPRLLIYSTSNLAAGIPARFSGSGSGTDFTLTISSLEPEDFAVYYCQQYSGYPLTFGGGTKVEIK: 18300
Humanized antibody h75G7C6-8 (antibody, human IgG1, V domains shown) VH: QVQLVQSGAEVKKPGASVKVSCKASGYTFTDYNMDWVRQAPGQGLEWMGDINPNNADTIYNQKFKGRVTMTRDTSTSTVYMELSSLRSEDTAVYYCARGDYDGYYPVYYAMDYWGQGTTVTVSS VL: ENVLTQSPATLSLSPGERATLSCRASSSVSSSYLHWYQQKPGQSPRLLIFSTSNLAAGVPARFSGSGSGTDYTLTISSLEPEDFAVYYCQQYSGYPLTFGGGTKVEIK: 17600

Lab note: next binder to report on.
Value lookup for Maximum mean fluorescence intensity; key = Humanized antibody h75G7C6-3 (antibody, human IgG1, V domains shown) VH: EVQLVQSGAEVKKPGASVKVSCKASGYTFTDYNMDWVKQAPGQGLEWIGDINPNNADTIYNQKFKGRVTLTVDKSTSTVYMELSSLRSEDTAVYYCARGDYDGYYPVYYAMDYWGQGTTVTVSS VL: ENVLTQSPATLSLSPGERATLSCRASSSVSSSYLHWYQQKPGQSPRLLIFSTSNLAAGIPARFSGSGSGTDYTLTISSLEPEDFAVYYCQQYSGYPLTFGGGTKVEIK
18600
